TESTED SYSTEM: SIRT1 (Homo sapiens, UniProt Q96EB6)
Sequence (Q96EB6 whole entry): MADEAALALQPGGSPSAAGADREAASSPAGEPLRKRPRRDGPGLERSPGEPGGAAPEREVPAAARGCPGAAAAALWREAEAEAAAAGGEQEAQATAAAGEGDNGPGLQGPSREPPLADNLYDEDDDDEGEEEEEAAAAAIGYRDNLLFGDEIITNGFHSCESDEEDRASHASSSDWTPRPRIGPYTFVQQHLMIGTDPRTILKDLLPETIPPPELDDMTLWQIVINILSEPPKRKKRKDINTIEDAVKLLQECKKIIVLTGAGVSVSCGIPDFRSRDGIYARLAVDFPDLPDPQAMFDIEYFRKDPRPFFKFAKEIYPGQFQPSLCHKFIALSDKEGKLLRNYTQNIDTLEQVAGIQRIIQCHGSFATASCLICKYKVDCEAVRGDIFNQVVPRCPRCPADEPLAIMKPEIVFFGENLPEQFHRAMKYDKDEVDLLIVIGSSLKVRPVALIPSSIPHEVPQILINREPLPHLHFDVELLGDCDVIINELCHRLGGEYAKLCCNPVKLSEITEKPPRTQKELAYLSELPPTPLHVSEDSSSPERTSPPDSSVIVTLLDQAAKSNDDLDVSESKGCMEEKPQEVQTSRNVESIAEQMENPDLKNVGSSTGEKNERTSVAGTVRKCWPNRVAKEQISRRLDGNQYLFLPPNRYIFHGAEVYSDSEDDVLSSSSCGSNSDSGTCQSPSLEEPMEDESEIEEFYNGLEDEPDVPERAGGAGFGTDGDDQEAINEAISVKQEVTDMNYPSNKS
ASSAY EXPLANATION: Mass spectrometry based assay to identify modulators of SIRT1 activity (deacetylation of p53-based acetylated peptide substrate)
Type: biochemical
Field: EC1.5 (concentration giving 1.5-fold activation). Provide a value for each of the compounds that follow.

Known results for compounds:
{"columns": ["COMPOUND", "READOUT VALUE"],
 "data": [
  ["Cc1csc(NC(=O)N2CCOc3ncc(-c4cccc(C(F)(F)F)c4)nc32)n1", "> 25 µM"],
  ["Cc1csc(NC(=O)N2CCCC(F)(F)c3ccc(-c4cccc(Cl)c4)nc32)n1", "> 25 µM"],
  ["Cc1csc(NC(=O)N2CCC(C)(C)c3ccc(-c4cccc(C(F)(F)F)c4)nc32)n1", "< 1 µM"]
]}

Now look at this entry.
For this compound ( Cc1csc(NC(=O)N2CCC(C)c3ccc(-c4cccc(C(F)(F)F)c4)nc32)n1 (stereo not shown) ), measured EC1.5 (concentration giving 1.5-fold activation) is < 1 µM
